target: NK1 (Homo sapiens, UniProt P25103); assay: Signal transduction (ST), intracellular Ca++ (FLIPR), functional NK1 antagonistic activity; assay type: cell-based; settings: antagonist, read-out: NK1 pIC50 (converted)
Sequence (P25103 whole entry): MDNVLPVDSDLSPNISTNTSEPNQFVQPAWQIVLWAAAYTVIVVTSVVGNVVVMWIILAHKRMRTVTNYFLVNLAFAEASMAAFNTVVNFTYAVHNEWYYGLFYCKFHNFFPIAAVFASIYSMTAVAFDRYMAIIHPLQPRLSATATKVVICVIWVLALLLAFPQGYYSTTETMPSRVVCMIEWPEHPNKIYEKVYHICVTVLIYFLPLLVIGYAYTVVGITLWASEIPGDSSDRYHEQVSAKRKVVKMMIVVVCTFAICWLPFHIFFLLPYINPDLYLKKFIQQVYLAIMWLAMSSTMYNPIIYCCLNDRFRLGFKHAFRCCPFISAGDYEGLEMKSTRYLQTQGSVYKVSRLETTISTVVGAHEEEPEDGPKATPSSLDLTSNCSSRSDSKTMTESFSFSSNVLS
Labelling: IC50 reported below 70 nM becomes true (1); at or above becomes false (0).

Completed entries (count: 5):
O=C(C1CC1)N1CCC2(CC1)CCN(C(=O)[C@H]1CCN(C(=O)c3cc(C(F)(F)F)cc(C(F)(F)F)c3)[C@H](Cc3ccccc3)C1)CC2 [Compound 186] | true (1)
CC(C)(C)C(=O)N1CCC2(CC1)CCN([C@@H]1CCN(C(=O)c3cc(C(F)(F)F)cc(C(F)(F)F)c3)[C@H](Cc3ccccc3)C1)CC2 [Compound 8] | true (1)
O=C(C1CCOC1)N1CCCC2(CCN([C@H]3CCN(C(=O)c4cc(C(F)(F)F)cc(C(F)(F)F)c4)[C@H](Cc4ccccc4)C3)CC2)C1 (some centres unmarked) [Compound 174] | true (1)
O=C(C1CCOC1)N1CCC2(CC1)CCN([C@H]1CCN(C(=O)c3cc(C(F)(F)F)cc(C(F)(F)F)c3)[C@H](Cc3ccccc3)C1)CC2 (some centres unmarked) [Compound 21] | true (1)
O=C(c1ccsc1)N1CCCC2(CCN([C@H]3CCN(C(=O)c4cc(C(F)(F)F)cc(C(F)(F)F)c4)[C@H](Cc4ccccc4)C3)CC2)C1 [Compound 175] | true (1)

In: # check: IC50 < 70 nM for O=C(c1cc(C(F)(F)F)cc(C(F)(F)F)c1)N1CC[C@H](N2CCC3(CC2)CCN(S(=O)(=O)c2ccc(Cl)c(Cl)c2)CC3)C[C@H]1Cc1ccccc1 [Compound 113]
Out: false (0)

In: # check: IC50 < 70 nM for CS(=O)(=O)c1ccccc1S(=O)(=O)N1CCC2(CCN([C@H]3CCN(C(=O)c4cc(C(F)(F)F)cc(C(F)(F)F)c4)[C@H](Cc4ccccc4)C3)CC2)CC1 [Compound 125]
Out: false (0)

In: # check: IC50 < 70 nM for O=C(c1cc2ccccc2o1)N1CCC2(CC1)CCN([C@H]1CCN(C(=O)c3cc(C(F)(F)F)cc(C(F)(F)F)c3)[C@H](Cc3ccccc3)C1)CC2 [Compound 64]
Out: false (0)

In: # check: IC50 < 70 nM for O=C1CC2(CCN1CC1CCC1)CCN([C@@H]1CCN(C(=O)c3cc(C(F)(F)F)cc(C(F)(F)F)c3)[C@H](Cc3ccccc3)C1)CC2 [Compound 197]
Out: false (0)

In: # check: IC50 < 70 nM for O=C(c1ccc2nonc2c1)N1CCC2(CC1)CCN([C@H]1CCN(C(=O)c3cc(C(F)(F)F)cc(C(F)(F)F)c3)[C@H](Cc3ccccc3)C1)CC2 [Compound 68]
Out: false (0)

----------
Biological target: NK3 (Homo sapiens, UniProt P29371)
Sequence (P29371 1-465): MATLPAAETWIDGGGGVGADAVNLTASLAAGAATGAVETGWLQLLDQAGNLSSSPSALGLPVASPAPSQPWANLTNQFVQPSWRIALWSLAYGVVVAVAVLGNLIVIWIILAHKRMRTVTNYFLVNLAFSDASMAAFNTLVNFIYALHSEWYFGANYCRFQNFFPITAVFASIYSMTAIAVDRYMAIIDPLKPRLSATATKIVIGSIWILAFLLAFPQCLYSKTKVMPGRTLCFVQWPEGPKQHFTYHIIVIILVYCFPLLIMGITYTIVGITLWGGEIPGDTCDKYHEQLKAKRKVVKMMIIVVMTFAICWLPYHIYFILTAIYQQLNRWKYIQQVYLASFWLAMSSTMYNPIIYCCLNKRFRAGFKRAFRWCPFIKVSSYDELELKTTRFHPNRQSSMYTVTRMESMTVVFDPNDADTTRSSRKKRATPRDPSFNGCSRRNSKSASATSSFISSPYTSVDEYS
Assay: Signal transduction (ST), intracellular Ca++ (FLIPR), NK3
Assay type: cell-based
Details: antagonist, read-out: NK3 pIC50 (converted)
observable: IC50

Solved entries (count: 5):
CC1(C)OC(=O)CC1C(=O)N1CCC2(CC1)CCN([C@H]1CCN(C(=O)c3cc(C(F)(F)F)cc(C(F)(F)F)c3)[C@H](Cc3ccc(F)c(F)c3)C1)CC2 (stereo partly drawn) | > 10 µM
O=C(C1CC1)N1CCC2(CC1)CCN([C@H]1CCN(C(=O)c3cc(C(F)(F)F)cc(C(F)(F)F)c3)[C@H](Cc3ccc(Cl)c(Cl)c3)C1)CC2 | 1.41 µM
O=C(c1cc(C(F)(F)F)cc(C(F)(F)F)c1)N1CC[C@H](N2CCC3(CCN(C(=O)C4(c5ccccc5)CCCC4)CC3)CC2)C[C@H]1Cc1ccccc1 | > 10 µM
O=C(CC12CC3CC(CC(C3)C1)C2)N1CCC2(CC1)CCN([C@H]1CCN(C(=O)c3cc(C(F)(F)F)cc(C(F)(F)F)c3)[C@H](Cc3ccccc3)C1)CC2 | > 10 µM
O=C(c1ccco1)N1CCCC2(CCN([C@H]3CCN(C(=O)c4cc(C(F)(F)F)cc(C(F)(F)F)c4)[C@H](Cc4ccccc4)C3)CC2)C1 | > 10 µM

Shift focus to the following entry.
In: Fill in the blank: the reported IC50 of CC(C)(C)C(=O)N1CCC2(CC1)CCN([C@@H]1CCN(C(=O)c3cc(C(F)(F)F)cc(C(F)(F)F)c3)[C@H](Cc3ccccc3)C1)CC2 is ____.
Out: 4.47 µM
